Molecular target: NRAS G12C (Homo sapiens (Human), UniProt P01111+P62937, G12C)
Sequence (P01111 whole entry G12C): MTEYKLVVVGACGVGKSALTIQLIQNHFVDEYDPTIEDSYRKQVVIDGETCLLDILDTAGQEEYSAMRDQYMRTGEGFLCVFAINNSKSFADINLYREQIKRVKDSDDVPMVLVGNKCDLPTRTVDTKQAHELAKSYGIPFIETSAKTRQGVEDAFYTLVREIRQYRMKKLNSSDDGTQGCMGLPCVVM
Sequence (P62937 whole entry): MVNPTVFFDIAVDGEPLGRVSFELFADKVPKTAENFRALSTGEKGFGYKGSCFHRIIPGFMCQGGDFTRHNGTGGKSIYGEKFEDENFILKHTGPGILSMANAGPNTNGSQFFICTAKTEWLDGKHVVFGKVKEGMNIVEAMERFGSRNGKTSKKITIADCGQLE
Assay: Ras-Raf (BRAF RBD) disruption / FRET / MOA assay, NRAS G12C
Assay type: biochemical
Settings: read-out: IC50* NRAS G12C FRET data
pIC50: −log10 of the molar value.
parameter-measured: pIC50

CCn1c(-c2cnccc2COC)c2c3cc(ccc31)-c1cncc(c1)C[C@H](NC(=O)[C@H](C(C)C)N(C)C(=O)[C@H]1CCN(C(=O)C#CCN(C)C)C1)C(=O)N1CCC[C@H](N1)C(=O)OCC(C)(C)C2
6.00 to 7.00

Lab entry: NRAS G12C (Homo sapiens (Human), UniProt P01111+P62937, G12C) assay, compound C=CC(=O)N(C)[C@@H]1C[C@H]1N(C)C(=O)N(C)[C@H](C(=O)N[C@H]1Cc2nc(cs2)-c2ccc3c(c2)c(c(-c2cccnc2[C@H](C)OC)n3CC)CC(C)(C)COC(=O)[C@@H]2CCCN(N2)C1=O)C(C)C (atropisomer, axis not shown) , pIC50 = 6.00 to 7.00

Lab entry: NRAS G12C (Homo sapiens (Human), UniProt P01111+P62937, G12C) assay, compound `C=CC(=O)N1C[C@@H](C(=O)N(C)[C@@H](C(=O)N[C@H]2Cc3cc(O)cc(c3)-c3ccc4c(c3)c(c(-c3cccnc3COC)n4CC)CC(C)(C)COC(=O)[C@@H]3CCCN(N3)C2=O)C(C)C)C[C@H]1C` , pIC50 = 6.00 to 7.00

###

Molecular target: NRAS WT (Homo sapiens (Human), UniProt P01111+P62937)
Sequence (P01111 whole entry, one chain of several): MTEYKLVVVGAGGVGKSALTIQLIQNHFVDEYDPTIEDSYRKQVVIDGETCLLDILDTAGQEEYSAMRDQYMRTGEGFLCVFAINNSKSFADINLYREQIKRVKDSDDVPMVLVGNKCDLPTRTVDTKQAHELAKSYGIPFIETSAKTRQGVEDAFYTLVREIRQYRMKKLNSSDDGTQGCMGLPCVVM
Assay: Ras-Raf (BRAF RBD) disruption / FRET / MOA assay, NRAS WT
Type: biochemical
Conditions: read-out: IC50* NRAS WT FRET data
pIC50: −log10 of the molar value.
parameter-measured: pIC50

Sample answers from the record:
CO[C@@H](C)c1ncccc1-c1c2c3cc(ccc3n1CC(F)(F)F)-c1cc(cc(C(F)F)c1)C[C@H](NC(=O)[C@@H](COC1CN(C(=O)C#CC(C)(C)N(C)C)C1)C(C)C)C(=O)N1CCC[C@H](N1)C(=O)OCC(C)(C)C2 (atropisomer, axis not shown) [Example A374]
< 5.00
C=CC(=O)N1C[C@H](C)N(C(=O)N(C)[C@H](C(=O)N[C@H]2Cc3nc(cs3)-c3ccc4c(c3)c(c(-c3cccnc3[C@H](C)OC)n4CC)CC(C)(C)COC(=O)[C@@H]3CCCN(N3)C2=O)C(C)C)[C@@H](C)C1 (atropisomer, axis not shown) [Example A386]
7.00 to 8.00
CCn1c(-c2cccnc2[C@H](C)OC)c2c3cc(ccc31)N1CCO[C@@](C)(C[C@H](NC(=O)[C@H](C(C)C)N(C)C(=O)C3(F)CCN(C(=O)C#CC(C)(C)N(C)C)CC3)C(=O)N3CCC[C@H](N3)C(=O)OCC(C)(C)C2)C1 [Example A550]
6.00 to 7.00
C=CC(=O)N1CCOC2(CCN(C(=O)N(C)[C@H](C(=O)N[C@H]3Cc4cc(CF)cc(c4)-c4ccc5c(c4)c(c(-c4cccnc4[C@H](C)OC)n5CC(F)(F)F)CC(C)(C)COC(=O)[C@@H]4CCCN(N4)C3=O)C(C)C)CC2)C1 (atropisomer, axis not shown) [Example A605]
7.00 to 8.00
CCn1c(-c2cccnc2[C@H](C)OC)c2c3cc(ccc31)-c1csc(n1)C[C@H](NC(=O)[C@@H](F)COC1CN(C(=O)C#CC(C)(C)N(C)C)C1)C(=O)N1CCC[C@H](N1)C(=O)OCC(C)(C)C2 (atropisomer, axis not shown) [Example A626]
5.00 to 6.00

GET /value?item= C=CC(=O)N1CC[C@H](C(=O)N(C)[C@H](C(=O)N[C@H]2Cc3cc(O)cc(c3)-c3ccc4c(c3)c(c(-c3cc(C#N)cnc3COC)n4CC)CC(C)(C)COC(=O)[C@@H]3CCCN(N3)C2=O)C(C)C)C1 [Example A105] &field=pIC50 returns 6.00 to 7.00

GET /value?item= C=CC(=O)N1CC[C@H](C(=O)N(C)[C@H](C(=O)N[C@H]2Cc3cccc(c3)-c3ccc4c(c3)c(c(-c3cccnc3[C@H](C)OC)n4CC)CC(C)(C)COC(=O)[C@@H]3CCCN(N3)C2=O)[C@@H](C)C(F)(F)F)C1 (atropisomer, axis not shown) [Example A640] &field=pIC50 returns 5.00 to 6.00

GET /value?item= C=CC(=O)N1CC[C@@H]2[C@H]1CN2C(=O)N(C)[C@H](C(=O)N[C@H]1Cc2nc(cs2)-c2ccc3c(c2)c(c(-c2cccnc2[C@H](C)OC)n3CC)CC(C)(C)COC(=O)[C@@H]2CCCN(N2)C1=O)C(C)C (atropisomer, axis not shown) [Example A546] &field=pIC50 returns 6.00 to 7.00
